test.summary: Cytotoxicity against […] cells at 70 uM after 72 hrs by Alamar blue assay
Assay type: cell-based
protocol.conditions: human, HEK293 cells; read-out: INH
readout: cytotoxicity at 72 h, 70 µM (%)
Numbers only; they are read as %.

Supply reported cytotoxicity at 72 h, 70 µM belonging to this compound: N=C(N)c1ccc(OCCCCCOc2ccc(C(=N)N)cc2)cc1 [PENTAMIDINE]
58.3
